Biological target: human chemokine receptor CCR3 (Homo sapiens, UniProt P51677)
Construct: expressed in transfected cells; host or cells: K562 cell line (hCCR3-C1 cells), membrane preparation
Sequence (P51677 1-355): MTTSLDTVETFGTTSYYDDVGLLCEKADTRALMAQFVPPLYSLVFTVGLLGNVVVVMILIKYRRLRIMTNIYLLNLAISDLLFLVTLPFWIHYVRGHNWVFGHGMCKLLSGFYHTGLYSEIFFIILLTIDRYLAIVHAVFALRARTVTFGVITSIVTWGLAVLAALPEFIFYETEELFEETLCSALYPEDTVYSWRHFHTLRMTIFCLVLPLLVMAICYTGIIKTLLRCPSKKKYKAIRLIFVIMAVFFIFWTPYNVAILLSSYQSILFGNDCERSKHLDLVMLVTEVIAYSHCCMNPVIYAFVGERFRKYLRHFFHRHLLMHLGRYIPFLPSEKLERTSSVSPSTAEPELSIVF
Experiment: CCR3 receptor binding assay (SPA, 125I-eotaxin-1 displacement, hCCR3-C1 K562 cell membranes)
Conditions: 1 μM test compound; human Eotaxin-1 at human CCR3-Rezeptor; read-out: CCR3 % inh @ 1 μM
Value Kind: inhibition at 1 µM (%)
Value expressed in %; do not type the unit.

Worked cases, answers included:
Cc1cc(CN2CCC(N3C(=O)CC[C@@H]3C(=O)N3CCc4c(F)cccc4C3)CC2)ccc1Cl [Example 59]	66
Cc1cc(CN2CCC(N3C(=O)CC[C@@H]3C(=O)Nc3cc(F)cc(C(=O)N(C)C)c3)CC2)ccc1Cl [Example 176]	100
Cc1cc(CN2CCC(N3C(=O)CC[C@@H]3C(=O)Nc3cccc(C(=O)NCC4CC4)c3)CC2)ccc1Cl [Example 136]	100

// fetch inhibition at 1 µM; item: Cc1cc(CN2CCC(N3C(=O)CC[C@@H]3C(=O)Nc3cccc(C(=O)NCC(C)C)c3)CC2)ccc1Cl [Example 137] ; system: human chemokine receptor CCR3 (Homo sapiens, UniProt P51677)
101

Recall the reported inhibition at 1 µM of Cc1cc(CN2CCC(N3C(=O)CC[C@@H]3C(=O)Nc3cccc(C(=O)N(C)C(C)C)c3)CC2)ccc1Cl [Example 133] when tested on human chemokine receptor CCR3 (Homo sapiens, UniProt P51677).
100

Send back human chemokine receptor CCR3 (Homo sapiens, UniProt P51677) inhibition at 1 µM of CNc1nc(-c2cccc(NC(=O)[C@H]3CN(C)C(=O)N3C3CCN(Cc4ccc(Cl)c(C)c4)CC3)c2)no1 [Example 122] only.
95

// fetch inhibition at 1 µM for Cc1cc(CN2C3CCC2CC(N2C(=O)CC[C@@H]2C(=O)Nc2cc(C4CC4)nn2C)C3)ccc1Cl (stereo partly shown) [Example 85] ; system: human chemokine receptor CCR3 (Homo sapiens, UniProt P51677)
68

###

biological target: human chemokine receptor CCR3 (Homo sapiens, UniProt P51677); construct: expressed in transfected cells; host or cells: K562 cell line (hCCR3-C1 cells), membrane preparation; assay: CCR3 receptor binding assay (SPA, 125I-eotaxin-1 displacement, hCCR3-C1 K562 cell membranes); details: 1 μM test compound; human Eotaxin-1 at human CCR3-Rezeptor; read-out: CCR3 % inh @ 1 μM
Value Kind: inhibition at 1 µM
Write the quantity with the unit trailing the number.

Before answering, review these 8 worked examples.
Cc1cc(CN2CCC(N3C(=O)CC[C@H]3C(=O)NCc3ccccc3OC(F)F)CC2)ccc1Cl	78%
CNC(=O)c1cccc(NC(=O)[C@H]2CCC(=O)N2C2CC3CCC(C2)N3Cc2ccc(Cl)c(C)c2)c1 (stereo partly drawn)	77%
Cc1cc(C(=O)N2CCOCC2)cc(NC(=O)[C@H]2CCC(=O)N2C2CCN(Cc3ccc(Cl)c(C)c3)CC2)n1	98%
Cc1cc(CN2CCC(N3C(=O)CC[C@@H]3C(=O)Nc3cc(Cl)cc(C(=O)N(C)C)c3)CC2)ccc1Cl	99%
Cc1cc(-c2nnnn2C)cc(NC(=O)[C@H]2CCC(=O)N2C2CCN(Cc3ccc(Cl)c(C)c3)CC2)n1	89%
Cc1cc(CN2CCC(N3C(=O)CC[C@@H]3C(=O)Nc3cccc(C(=O)N4CCCC4)c3)CC2)ccc1Cl	100%
COc1cc(NC(=O)[C@H]2CCC(=O)N2C2CCN(Cc3ccc(Cl)c(C)c3)CC2)cc(C(=O)N(C)C)c1	99%
CNC(=O)N1CCc2cc(NC(=O)[C@H]3CCC(=O)N3C3CCN(Cc4ccc(Cl)c(C)c4)CC3)ccc21	80%

Now consider the entry below.
Report inhibition at 1 µM for `COc1cccc2c1CN(C(=O)[C@@H]1CCC(=O)N1C1CCN(Cc3ccc(Cl)c(C)c3)CC1)CC2`
78%
